system: 349418-098-R-PDC complex spheroid viability; assay: Anticancer human tumor 349418-098-R-PDC patient-derived lung adenocarcinoma cell line growth inhibition [RAS]; settings: second compound 10 µM; first compound 0.0316 µM; active compounds read low
measuredMetric: viability, T/C (%)
The figure you give is taken to be in %; do not add the unit.

Query string: viability, T/C lookup needed for O=C(c1ccc(F)c(F)c1Nc1ccc(I)cc1F)N1CC(O)([C@@H]2CCCCN2)C1 + C#Cc1c(F)ccc2cc(O)cc(-c3ncc4c(N5CC6CCC(C5)N6)nc(OCC56CCCN5CC(F)C6)nc4c3F)c12 , thanks.
Result string: 3.23

Query string: So what's the measured viability, T/C for this one? C=CC(=O)Nc1cc(Nc2nccc(-c3cn(C)c4ccccc34)n2)c(OC)cc1N(C)CCN(C)C + C#Cc1c(F)ccc2cc(O)cc(-c3ncc4c(N5CC6CCC(C5)N6)nc(OCC56CCCN5CC(F)C6)nc4c3F)c12
Result string: 88.9

Query string: Which viability, T/C value belongs to CC1(O)CCCC1n1c(=O)c(C(F)F)cc2cnc(NC3CCN(S(C)(=O)=O)CC3)nc21 (centres undefined) + C#Cc1c(F)ccc2cc(O)cc(-c3ncc4c(N5CC6CCC(C5)N6)nc(OCC56CCCN5CC(F)C6)nc4c3F)c12 ?
Result string: 49.8

Query string: I'd like to know its viability, T/C. The compound in question is C=CC(=O)N1CCN(c2nc(OCC3CCCN3C)nc3c(F)c(-c4nc(N)cc(C)c4C(F)(F)F)c(Cl)cc23)C(C)C1 (centres undefined) + C#Cc1c(F)ccc2cc(O)cc(-c3ncc4c(N5CC6CCC(C5)N6)nc(OCC56CCCN5CC(F)C6)nc4c3F)c12
Result string: 85.3

* * *

tested on: 349418-098-R-PDC complex spheroid viability; experiment: Anticancer human tumor 349418-098-R-PDC cell line growth inhibition [RAS]; settings: second compound 0.003 µM; first compound 10 µM; active compounds read low;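 note: spheroids exposed to compound for seven days before viability readout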
Each record is given true (1) if its reported viability, T/C is strictly below 10%. Records at or above 10% are given false (0).

Query string: Please check: viability, T/C for CCC(CC)c1cc(NC2CCC(N)C2)n2nccc2n1 (stereo not given) + CCn1c(-c2cc(N3CCN(C)CC3)cnc2C(C)OC)c2c3cc(ccc31)-c1csc(n1)CC(NC(=O)C1CC1C)C(=O)N1CCCC(N1)C(=O)OCC(C)(C)C2 , strictly under 10% or not?
Result string: true (1)

Query string: Record CC(Nc1ccc2c(c1)OCCn1cc(N3C(=O)OCC3C(F)F)nc1-2)C(N)=O (stereo not given) + CCn1c(-c2cc(N3CCN(C)CC3)cnc2C(C)OC)c2c3cc(ccc31)-c1csc(n1)CC(NC(=O)C1CC1C)C(=O)N1CCCC(N1)C(=O)OCC(C)(C)C2 : is its viability, T/C strictly below 10%?
Result string: false (0)

Query string: Does this molecule meet the criterion viability, T/C < 10%? C[C@@H](NC(=O)c1ncnc(N)c1Cl)c1ncc(C(=O)Nc2cc(C(F)(F)F)c(Cl)cn2)s1 + CCn1c(-c2cc(N3CCN(C)CC3)cnc2C(C)OC)c2c3cc(ccc31)-c1csc(n1)CC(NC(=O)C1CC1C)C(=O)N1CCCC(N1)C(=O)OCC(C)(C)C2
Result string: false (0)

Query string: Quick check: does CCC(CC)c1cc(NC2CCC(N)C2)n2nccc2n1 (stereo not given) + CCn1c(-c2cccnc2C(C)OC)c2c3cc(ccc31)N1CCOC(CC(NC(=O)C(C(C)C)N(C)C(=O)C3(F)CCN(C(=O)C#CC(C)(C)N(C)C)CC3)C(=O)N3CCCC(N3)C(=O)OCC(C)(C)C2)C1 have viability, T/C under 10%?
Result string: true (1)

Query string: Given NC1c2ccccc2OC12CCN(c1cnc3c(N4CCCc5ncccc54)n[nH]c3n1)CC2 (stereo not given) + CCn1c(-c2cccnc2C(C)OC)c2c3cc(ccc31)N1CCOC(CC(NC(=O)C(C(C)C)N(C)C(=O)C3(F)CCN(C(=O)C#CC(C)(C)N(C)C)CC3)C(=O)N3CCCC(N3)C(=O)OCC(C)(C)C2)C1 , is recorded viability, T/C strictly lower than 10%?
Result string: false (0)

Query string: Does the reported viability, T/C of the following molecule sit strictly below 10%? Cc1nc(N2CCC3(CC2)COC(C)C3N)c(CO)nc1Sc1ccnc(N)c1Cl (stereo not given) + CCn1c(-c2cccnc2C(C)OC)c2c3cc(ccc31)N1CCOC(CC(NC(=O)C(C(C)C)N(C)C(=O)C3(F)CCN(C(=O)C#CC(C)(C)N(C)C)CC3)C(=O)N3CCCC(N3)C(=O)OCC(C)(C)C2)C1
Result string: false (0)

Query string: viability, T/C under 10%? Item: CC1(O)CCCC1n1c(=O)c(C(F)F)cc2cnc(NC3CCN(S(C)(=O)=O)CC3)nc21 (stereo not given) + CCn1c(-c2cccnc2C(C)OC)c2c3cc(ccc31)N1CCOC(CC(NC(=O)C(C(C)C)N(C)C(=O)C3(F)CCN(C(=O)C#CC(C)(C)N(C)C)CC3)C(=O)N3CCCC(N3)C(=O)OCC(C)(C)C2)C1
Result string: true (1)

Query string: Is viability, T/C of CC1(O)CCCC1n1c(=O)c(C(F)F)cc2cnc(NC3CCN(S(C)(=O)=O)CC3)nc21 (stereo not given) + CCn1c(-c2cc(N3CCN(C)CC3)cnc2C(C)OC)c2c3cc(ccc31)-c1csc(n1)CC(NC(=O)C1CC1C)C(=O)N1CCCC(N1)C(=O)OCC(C)(C)C2 strictly below 10%?
Result string: true (1)

Query string: Hello, is viability, T/C of the following molecule strictly smaller than 10%? Cc1nc(N2CCC3(CC2)COC(C)C3N)c(CO)nc1Sc1ccnc(N)c1Cl (stereo not given) + CCn1c(-c2cc(N3CCN(C)CC3)cnc2C(C)OC)c2c3cc(ccc31)-c1csc(n1)CC(NC(=O)C1CC1C)C(=O)N1CCCC(N1)C(=O)OCC(C)(C)C2
Result string: false (0)
